The values you see were collected from PubChem BioAssay AID686979.

assay.text: qHTS for Inhibitors of human tyrosyl-DNA phosphodiesterase 1 (TDP1): qHTS in cells in presence of CPT; note: nearly all actives have a fitted effect of over 55% in size
conditions.used: chicken DT40 Tdp1-/-;hTDP1 cells + 20 nM CPT, ATP luminescence, 48 h; series mostly up to 46.2 µM
About 50,000 (12%) of roughly 420,000 compounds were called active. Not shown: some 26% with an inconclusive outcome. Calls come from the whole dose curve; as a rule, active = well fitted inhibition curve with a large enough effect; inconclusive = small, poorly fitted or top-dose-only effect; inactive = flat fitted curve, though single readings scatter. The entries come from a sample that favours actives as a whole.
Outcomes you can answer with include only these: 1.0 for active, 0.0 for inactive

Example results:
molecule	class.assignment
Cc1cc2nc(NC(=O)c3ccc(S(=O)(=O)N4CCOCC4)cc3)sc2cc1C	0.0
COc1ccccc1NC(=O)c1cc(N2C(=O)C3C4CCC(C4)C3C2=O)ccc1Cl (configuration not stated)	0.0
O=C(NCCc1ccc(Cl)cc1)c1cccc(N2CCCC2=O)c1	0.0
COc1cc2nc(N3CCCN(C)CC3)nc(NC3CC3)c2cc1OC	1.0
COc1ccccc1/C=C/C(=O)NC(=S)N1CCOCC1	0.0
COc1cc2nc(Cl)nc(NC3CC3)c2cc1OC	1.0
COc1cc2nc(C#Cc3nc4cc(OC)c(OC)cc4[nH]3)[nH]c2cc1OC	0.0
CC(C)(C)c1ccc(SCCc2ccncc2)cc1	1.0

Called result for Cc1cc(C)c(S(=O)(=O)c2cc(F)ccc2C)c(=O)[nH]1 0.0

Called result for O=C(c1ccc2c(c1)N(Cc1ccc(F)cc1)C(=O)CS2)N1CCOCC1 0.0

Called result for Cc1ccc(CNC(=O)CCNS(=O)(=O)c2ccc3c(c2)oc(=O)n3C)cc1 0.0
